Data credit: PubChem BioAssay (NCI)

# System: OVCAR-4 ovarian
# protocol_description: NCI-60 one-dose screen, 48 h (100 = growth as untreated, 0 = no growth, -100 = all killed)
# condition_parameters: 10 µM unless noted
This is part of a sample that, as a whole, favours compounds with a hit. Of some 83,000 tested, about 20% had one in any assay.
Hi, to clarify the labels: T covers growth from 50% upward, F covers anything below 50%.

Query: Say whether O[C@@H](c1cc(C(F)(F)F)nc2c(C(F)(F)F)cccc12)[C@H]1CCCCN1 shows growth of 50% or more.
Result: T

Query: Please tell me: is the compound CCCCCCNc1nc(NCCCCCC)c2[nH]c(NCCCCCC)nc2n1 at or over 50% in terms of growth?
Result: F

Query: Textbook exercise: given the entry Cc1[nH]c(C(=O)Nc2cccc(OC3CCNCC3)c2)c(Cl)c1Cl , state whether its growth is greater than or equal to 50%.
Result: T

Query: Is growth at least 50%? Consider Cc1ccc(-c2csc(NC(=O)N3CCN(c4cc5c(cc4F)c(=O)c(C(=O)O)cn5C4CC4)CC3)n2)cc1
Result: F

Query: Say whether Cn1cc(-c2ccc3cc(-c4ccc(CC(=O)Nc5cc(C(C)(C)C)on5)cc4)cnc3c2)cn1 shows growth of 50% or more.
Result: F

Query: Check if growth >= 50% (inclusive). Item: Fc1ccc(CNc2c3ccccc3nc3ccccc23)cc1
Result: F

Query: Tell me whether growth is at least 50% here: CC(C)CSc1oc(-c2ccccc2)nc1S(=O)(=O)c1ccccc1
Result: T

Query: Kindly determine if growth recorded for CCN(CC)CCN(CCN(CC)CC)c1ccccc1 is above or exactly 50%.
Result: T

Query: Item O=C(/C=C/c1ccc(Br)cc1)c1ccc(-n2cc(CN3CCN(c4cc5c(cc4F)c(=O)c(C(=O)O)cn5C4CC4)CC3)nn2)cc1 with growth of 50% or above?
Result: T

Query: Can CCSC1=CC(=O)c2ccccc2C1=O be said to have growth at or above 50%?
Result: F

Query: Does the reported growth for Cc1ccc(-c2cc(C(=O)N3N=C(c4ccc(N)cc4)CC3c3ccc(Cl)cc3)c3ccccc3n2)cc1 (stereo unspecified) fall at or above the 50% mark?
Result: T

Query: Please check the record O=C(NCc1ccccc1O)c1cccc2ccccc12 and state if its growth is at or above 50%.
Result: T

Query: Threshold query (growth >= 50%) on CCc1ccc(CCC(=O)Nc2ncc(Cc3ccc(Cl)cc3)s2)o1
Result: T

Query: Reported growth at or above 50%? CCCCn1sc(=O)n(Cc2ccc(CNC(=O)OCc3ccc4c(Br)cc(Br)c(O)c4n3)cc2)c1=O
Result: T

Query: Does CC/C=C1/C(=O)C=C[C@@H]1C/C=C\CCCC(=O)OC have a reported growth of at least 50%?
Result: T

Query: Could you please find out whether COc1cccc2c(N=NC(=O)c3ccc(S(N)(=O)=O)cc3)c(O)[nH]c12 has growth that meets 50% or exceeds it?
Result: T

Query: Quick check: does CCOC(=O)Cn1c(=O)c2c3ccccc3n(C)c2n2nnc(-c3ccccc3)c12 have growth greater than or equal to 50%?
Result: T

Query: Please indicate if the recorded growth for CCn1cc(C(=O)NN=C2CCCCCC2)c(=O)c2ccc(C)nc21 meets or exceeds 50%.
Result: T

Query: Does COc1ccc(NC(=O)c2sc3nc4c(cc3c2N)CCCC4)cc1 have a reported growth of at least 50%?
Result: T
